# assayed system: T1, Hu/NoV/GII.4/HS-191/2001/U.S. VLP (human norovirus GII.4)
# T1 construct: mature; baculovirus VLP; VP2 may be present
# experimental protocol: VLP ELISA
measured attribute: minimum concentration of VHH able to recognize 100 ng of VLP (ng/well)
Reply numerically in ng/well, unit not repeated.

Exam item: Bench note: what minimum concentration of VHH able to recognize 100 ng of VLP did VHH 7.5 (VHH, llama VHH, MD2004 library; pHEN6, C-terminal His6 tag; also called clone 7.5) VHH: QVKLQESGGGLVQAGESLRLSCAASGSNFSINGVGWYRQAPGKQRELVAGITNGGYTSYADSVKGRFTISTDNAKNTVYLQMNSLRPEDTAVYYCNANFQIHRSGADYVRNYWGQGTQVTVSA show?
Marked response: 2

Exam item: Bench note: what minimum concentration of VHH able to recognize 100 ng of VLP did VHH 4.1 (VHH, llama VHH, MD2004 library; pHEN6, C-terminal His6 tag; also called clone 4.1) VHH: QVKLQQSGGGLVQPGGSLRLSCAASESTISINTLGWYRQAPGNQRELVATITTGGTTNYADSVKGRFTISRDNAKNTVYLQMNNLEPGDTAVYYCNLKRRDLQSRFGGYWGQGTQVTVSS show?
Marked response: 0.5

Exam item: Bench note: what minimum concentration of VHH able to recognize 100 ng of VLP did VHH 19 (VHH, MD2004 library, subtractive biopanning; His6 tag; also called 19.1; clone 19) VHH: QVKLQQSGGGLVQPGGSLRLSCAASGFTFRNYAMSWVRQAPGKGLEWVSAIAAGGAVTKYADSVKGRFTISRDNARDTLYLQMNSLKPEDTAVYYCAKPRDFWYSPEFDFRGQGTQVTVSS show?
Marked response: 1

Exam item: Bench note: what minimum concentration of VHH able to recognize 100 ng of VLP did VHH 2.1 (VHH, llama VHH, MD2004 library; pHEN6, C-terminal His6 tag; also called clone 2.1) VHH: QVQLQESGGGLVQAGGSLRLSCAASGLTFSSYAMGWFHQAPGKEREFVAAINWSGRDTYYADSVKGRFTISRDNRKNTVYLQMNSLKPEDTAVYYCAAAEFFSSGDPLPGMDYWGKGTLVTVSS show?
Marked response: 0.5

Exam item: Bench note: what minimum concentration of VHH able to recognize 100 ng of VLP did VHH 1 (VHH, llama VHH, MD2004 (GII.4) library; pHEN6, C-terminal His6 tag; also called 1.1; clone 1) VHH: QVQLQQSGGGLVQAGGSLRLSCAASGLAFSSYAITWLRQAPGTEREFVALISGSGSSTYYADSVKGRFTISRNNAKNTVYLQMNSLKPEDTAVYYCTASEFLLHPPPPNQKYDYWGQGTQVTVSS show?
Marked response: 1

Exam item: Bench note: what minimum concentration of VHH able to recognize 100 ng of VLP did VHH 3.2 (VHH, llama VHH, MD2004 library; pHEN6, C-terminal His6 tag; also called clone 3.2) VHH: QVQLQESGGGLVQPGGSLRLSCAASESTPSINTMGWYRQAPGKERELVATITSGGMTNYADSVKGRFTISRDNGKNTVYLQMNSLEPGDTAVYYCNLKRRDLQARFGGYWGQGTQVTVSS show?
Marked response: 0.5

Exam item: Bench note: what minimum concentration of VHH able to recognize 100 ng of VLP did VHH 5.4 (VHH, llama VHH, MD2004 library; pHEN6, C-terminal His6 tag; also called clone 5.4) VHH: QVQLQQSGGGLVQPGGSLRLSCVASESTVSINIMGWYRQAPGKQRELVATITTGGTTNYADSVKGRFTISRDNAKNTVYLQMNSLEPEDTAVYYCNLKRRDLQARFGGYWGQGTQVTVSS show?
Marked response: 0.25
